Test system: Enterovirus
Assay: Compound was evaluated for inhibition of rhinovirus RV-Hanks 75%
Format: functional
Reported Inhibition values for the following compounds.
Measure Name: Inhibition (%)

structure_as_smiles=O=[N+]([O-])c1ccc(Oc2ccc(Cl)c(Cl)c2)cc1 assay_target=Enterovirus val=65
structure_as_smiles=N#Cc1ccc(Oc2ccc([N+](=O)[O-])cc2)nc1 assay_target=Enterovirus val=85
structure_as_smiles=N#Cc1cc([N+](=O)[O-])ccc1Oc1ccc(Cl)c(Cl)c1 assay_target=Enterovirus val=100
structure_as_smiles=CS(=O)(=O)c1ccc(Oc2ccc(Cl)c(Cl)c2)cc1 assay_target=Enterovirus val=85
structure_as_smiles=CS(=O)(=O)c1ccc(Oc2ccc(Cl)c(Cl)c2)nc1 assay_target=Enterovirus val=65

----------
Tested on: Coxsackievirus
Assay: Ratio of the MIC50 of 6-(4-Nitro-phenoxy)-nicotinonitrile compared to compound obtained in the same test for coxsackie A21
Type: functional
Reported Relative activity values for the following compounds.
Measure Name: Relative activity

structure_as_smiles=CS(=O)(=O)c1ccc(Oc2ccc([N+](=O)[O-])cc2)cc1 val=6.1
structure_as_smiles=COc1ccc(Oc2ccc([N+](=O)[O-])cc2C#N)cc1OC val=1.3
structure_as_smiles=Cc1ccc(Oc2ccc(C#N)cn2)cc1 val=0.43
structure_as_smiles=Clc1ccc(Oc2ccc(Cl)c(Cl)c2)cc1 val=1.4
structure_as_smiles=N#Cc1cc([N+](=O)[O-])ccc1Oc1ccc(Cl)c(Cl)c1 val=99.6
structure_as_smiles=N#Cc1cc([N+](=O)[O-])ccc1Oc1ccccc1Cl val=2.38
structure_as_smiles=O=[N+]([O-])c1ccc(Oc2ccc(Cl)c(Cl)c2)cc1 val=5.9
structure_as_smiles=Clc1ccc(Oc2ccc(Br)cn2)cc1Cl val=6.5
structure_as_smiles=CS(=O)(=O)c1ccc(Oc2ccc(Cl)c(Cl)c2)nc1 val=0.65

----------
Tested on: Coxsackievirus
Test: Ratio of the MIC50 of 6-(4-Nitro-phenoxy)-nicotinonitrile compared to compound obtained in the same test for coxsackie A21
Assay type: functional
Measure Name: Relative activity

structure_as_smiles=N#Cc1cc([N+](=O)[O-])ccc1Oc1cc(Cl)ccc1Cl val=13
structure_as_smiles=CS(=O)(=O)c1ccc(Oc2ccc(Cl)c(Cl)c2)cc1 val=3.2
structure_as_smiles=CS(=O)(=O)c1ccc(Oc2ccc(C(=O)c3ccccc3)cc2)cc1 val=5.9
structure_as_smiles=N#Cc1cc([N+](=O)[O-])ccc1Oc1cccc(Cl)c1Cl val=3.2
structure_as_smiles=N#Cc1ccc(Oc2ccc(F)cc2)nc1 val=1.7
structure_as_smiles=CS(=O)(=O)c1ccc(Oc2ccc(Br)cc2)cc1 val=2.5
structure_as_smiles=N#Cc1ccnc(Oc2ccc(Cl)c(Cl)c2)c1 val=1.1
structure_as_smiles=CC(=O)c1ccc(Oc2ccc(C#N)cn2)cc1 val=0.02
structure_as_smiles=N#Cc1ccc(Oc2ccccc2)nc1 val=0.81
structure_as_smiles=CS(=O)(=O)c1ccc(Oc2ccc(C#N)cc2)cc1 val=2.3
structure_as_smiles=N#Cc1cc([N+](=O)[O-])ccc1Oc1ccccc1Br val=3.3
structure_as_smiles=N#Cc1cc(Oc2ccc(Cl)c(Cl)c2)ccc1[N+](=O)[O-] val=1.2
structure_as_smiles=N#Cc1cccc(Oc2ccc(Cl)c(Cl)c2)n1 val=0.91
structure_as_smiles=N#Cc1cc([N+](=O)[O-])ccc1Oc1c(Cl)cccc1Cl val=0.8
structure_as_smiles=N#Cc1ccc(Oc2ccc(Cl)c(Cl)c2)nc1 val=13
structure_as_smiles=N#Cc1cc([N+](=O)[O-])ccc1Oc1ccc(Cl)cc1 val=7.2
structure_as_smiles=N#Cc1cc([N+](=O)[O-])ccc1Oc1ccc(Br)cc1 val=3.3
structure_as_smiles=O=C(O)c1cc([N+](=O)[O-])ccc1Oc1ccc(Cl)c(Cl)c1 val=0.34
structure_as_smiles=CC(=O)Nc1ccc(Oc2ccc(Cl)c(Cl)c2)c(C#N)c1 val=1.7
structure_as_smiles=N#Cc1ccc(Oc2ccc(Cl)c(Cl)c2)c(C#N)c1 val=3.1
structure_as_smiles=COc1ccc(Oc2ccc(S(C)(=O)=O)cc2)cc1 val=0.29
structure_as_smiles=COc1ccc(Oc2ccc([N+](=O)[O-])cc2C#N)cc1 val=2.2
structure_as_smiles=CSc1ccc(Oc2ccc([N+](=O)[O-])cc2C#N)cc1 val=6
structure_as_smiles=N#Cc1cc([N+](=O)[O-])ccc1Oc1cccc(C(F)(F)F)c1 val=5.3
structure_as_smiles=CS(=O)(=O)c1ccc(Oc2ccc([N+](=O)[O-])cc2C#N)cc1 val=2.6
